- SYSTEM: HLA-B*27:05
- PROTOCOL_NOTES: IEDB peptide-MHC binding, purified MHC/direct/fluorescence; filed as Kd, often an IC50 or EC50 that approximates it; bounds were set here for any values at or beyond the usual limits of such assays
- MEASUREMENT_PARAMETERS: source organism: Influenza A virus (A/equine/New York/1/1999(H3N8))
pKd: −log10 of the molar value.
ASSAY_ENDPOINT: pKd

INSERT INTO measurements (sequence_text, system, measured) VALUES
  ('VAGGTSSVY', 'HLA-B*27:05', '≤ 4.70');

---

- SYSTEM: HLA-B*08:01
- PROTOCOL_NOTES: IEDB peptide-MHC binding, purified MHC/competitive/radioactivity; filed as Kd, often an IC50 or EC50 that approximates it; bounds were set here for any values at or beyond the usual limits of such assays
- MEASUREMENT_PARAMETERS: source organism: Vaccinia virus Copenhagen
ASSAY_ENDPOINT: Kd (nM)

INSERT INTO measurements (sequence_text, system, assay_endpoint, measured) VALUES
  ('LLKFRVESC', 'HLA-B*08:01', 'Kd', 74.4);
